Parameter: Spectra of Ni-Dye Complexes, Dye Solution, λ1/2. Scope: all listed entries.
assay notes: Dye solution spectra of Ni-dye complexes (Table I)
Type: physicochemical
run conditions: 3:1 dioxane:water, pH 7, excess nickel ion

Would you please look over these solved cases?
{"smi": "CC(C)(C)C(O)=C(C#N)N=Nc1ccc(S(N)(=O)=O)c2cccnc12", "measurement": "445 nm"}
{"smi": "CC(O)=C(C#N)N=Nc1cccc2cccnc12", "measurement": "431 nm"}

Now for the compound whose Spectra of Ni-Dye Complexes, Dye Solution, λ1/2 we want.
Reported Spectra of Ni-Dye Complexes, Dye Solution, λ1/2 of `N#CC(N=Nc1cccc2cccnc12)=C(O)c1ccccc1` : 446 nm
